Molecular target: recombinant human deoxyuridine nucleotidohydrolase (dUTPase) (Homo sapiens (Human))
Assay: fluorescence-based dUTPase inhibition assay
Type: biochemical
Conditions: mean over three concentrations, typically 100, 50 and 25 μmol/L, compared to in-run positive control
Excerpt: Recombinant human deoxyuridine nucleotidohydrolase (dUTPase) is expressed and purified as described in Ladner R D, Carr S A, Huddleston M J, McNulty D E, Caradonna S J. J Biol Chem. 1996 Mar. 29; 271(13):7752-7. […] Test compounds are screened in a fluorescence-based assay. […] This displacement effectively disrupts the Förster resonance energy transfer (FRET) and the resulting fluorescence detected upon excitation is directly proportional to the amount of the dUTP available in the assay for incorporation. […]
experimental.readout: % relative inhibition vs. positive control

- C[C@@H](NS(=O)(=O)CCCCCN1CC(=O)NC1=O)c1ccc(F)c(OC2CCCC2)c1: 187%
- CC(Oc1cc([C@@H](C)NS(=O)(=O)CCCCCN2CC(=O)NC2=O)ccc1F)C1CC1 (some centres unmarked): 37%
- CC(C)C(NS(=O)(=O)CCCCCN1CC(=O)NC1=O)c1ccc(F)c(OCC2CC2)c1 (centres unmarked): 27%
- C[C@@H](NS(=O)(=O)CCCCCN1CC(=O)N(C(=O)OC(C)(C)C)C1=O)c1ccc(F)c(OCC2CC2)c1: 20%
- C[C@H](c1ccc(F)c(OCC2CC2)c1)N(C)S(=O)(=O)CCCCCN1CC(=O)NC1=O: 12%
- C[C@H]1C(=O)NC(=O)N1CCCCCS(=O)(=O)NC1(c2cccc(OCC3CC3)c2)CC1 [123b]: 102%
- C[C@@H](NS(=O)(=O)CCCCCN1CC(=O)NC1=O)c1ccc(F)c(OCC2CCC2)c1: 93%
- C[C@@H](NS(=O)(=O)CCCCCN1CC(=O)NC1=O)c1ccc(F)c(Oc2ccccc2)c1: 60%

---

Measured % relative inhibition vs. positive control values are reported for all entries that follow.
target: recombinant human deoxyuridine nucleotidohydrolase (dUTPase) (Homo sapiens (Human), UniProt P33316); test: fluorescence-based dUTPase inhibition assay; assay type: biochemical; conditions: mean over three concentrations, typically 100, 50 and 25 μmol/L, compared to in-run positive control
Sequence (P33316 other isoform, or with tags, fused parts or gaps): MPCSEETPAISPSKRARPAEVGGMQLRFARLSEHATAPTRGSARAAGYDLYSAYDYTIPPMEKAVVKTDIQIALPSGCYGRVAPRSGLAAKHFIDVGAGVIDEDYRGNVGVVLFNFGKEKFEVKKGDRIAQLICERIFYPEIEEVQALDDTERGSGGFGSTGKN
experimental.readout: % relative inhibition vs. positive control (%)

• CCOc1cc([C@@H](C)NS(=O)(=O)CCCCCN2CC(=O)NC2=O)ccc1F = 25
• O=C1CN(CCCCCS(=O)(=O)NC(c2ccc(F)c(OCC3CC3)c2)C2CC2)C(=O)N1 (stereo not shown) = 57
• C[C@@H](NS(=O)(=O)CCn1ccc(N2CC(=O)NC2=O)n1)c1ccc(F)c(OCC2CC2)c1 = 1
• C[C@@H](NS(=O)(=O)CCCCCN1CC(=O)NC1=O)c1ccc(F)c(OCC2COC2)c1 = 37

---

target: recombinant human deoxyuridine nucleotidohydrolase (dUTPase) (Homo sapiens (Human)); assay: fluorescence-based dUTPase inhibition assay; assay type: biochemical; settings: mean over three concentrations, typically 100, 50 and 25 μmol/L, compared to in-run positive control
experimental.readout: % relative inhibition vs. positive control (%)

• C[C@@H](NS(=O)(=O)CCCOCN1CC(=O)NC1=O)c1cccc(OCC2CC2)c1 = 164
• C[C@@H](NS(=O)(=O)CCCCCN1CC(=O)NC1=O)c1cccc(OC2CCCC2)c1 = 93
• C[C@@H](NS(=O)(=O)C/C=C/CCC1(C)NC(=O)NC1=O)c1ccc(F)c(OCC2CC2)c1 (stereo partly drawn) [127a] = 37
• C[C@@H](NS(=O)(=O)CCCOCN1CC(=O)NC1=O)c1cccc(OC2CCCC2)c1 = 30
• C[C@@H](NS(=O)(=O)CCCCCN1CC(=O)NC1=O)c1ccc(F)c(OC[C@@H]2CCCN2C)c1 = 1
• O=C1CN(CCCCCCNS(=O)(=O)c2cccc(OCC3CC3)c2)C(=O)N1 = 151
• C[C@@H](NS(=O)(=O)CCCCCN1CC(=O)NC1=O)c1ccc(F)c(OCC(=O)O)c1 = 4
• O=C1CN(C/C=C/CCCNS(=O)(=O)c2cccc(OCC3CC3)c2)C(=O)N1 = 139
• C[C@@H](NS(=O)(=O)CC/C=C/CN1C(=O)NC(=O)[C@@H]1C)c1ccc(F)c(OCC2CC2)c1 [Compound 107a] = 153
• CC1(C)C(=O)NC(=O)N1C/C=C/CCS(=O)(=O)NC1(c2ccc(F)c(OCC3CC3)c2)CC1 [119a] = 10
• CC(C)COc1cc([C@@H](C)NS(=O)(=O)CCCCCN2C(=O)NC(=O)[C@H]2C)ccc1F [Compound 108b] = 94
• C[C@H]1C(=O)NC(=O)N1C/C=C/CCS(=O)(=O)NC1(c2cccc(OCC3CC3)c2)CC1 [123a] = 105

---

target: recombinant human deoxyuridine nucleotidohydrolase (dUTPase) (Homo sapiens (Human)); assay: fluorescence-based dUTPase inhibition assay; format: biochemical; conditions: mean over three concentrations, typically 100, 50 and 25 μmol/L, compared to in-run positive control
experimental.readout: % relative inhibition vs. positive control (%)

- O=C1CN(COCCCS(=O)(=O)NC2(c3ccc(F)c(OCC4CC4)c3)CC2)C(=O)N1 [compound 120]: 172
- CC(C)COc1cc([C@@H](C)NS(=O)(=O)CC/C=C/CN2C(=O)NC(=O)[C@H]2C)ccc1F [Compound 108a]: 123
- C[C@@H](NS(=O)(=O)CCCCCN1CC(=O)NC1=O)c1ccc(F)c(OCc2nn[nH]n2)c1 [Example 102]: 0
- CC1(C)C(=O)NC(=O)N1CCCCCS(=O)(=O)NC1(c2ccc(F)c(OCC3CC3)c2)CC1 [119b]: 23
- C[C@H](NS(=O)(=O)CCCCCN1CC(=O)NC1=O)c1ccc(F)c(OCCC2CC2)c1 [compound 128]: 53
- C[C@@H](NS(=O)(=O)CCCCCN1CC(=O)NC1=O)c1ccc(F)c(OS(=O)(=O)C(F)(F)F)c1 [Example 94]: 1
- CC1(C)C(=O)NC(=O)N1C/C=C/CCS(=O)(=O)NC1(c2ccc(F)c(OCC(F)F)c2)CC1 [compound 121]: 21
- C[C@@H](NS(=O)(=O)CCCCCN1CC(=O)NC1=O)c1ccc(F)c(OCC2CCOCC2)c1 [Example 100]: 5
- C[C@@H](NS(=O)(=O)CC/C=C/CC1CC(=O)NC1=O)c1ccc(F)c(OCC2CC2)c1 (stereo partly drawn) [compound 125]: 71
- C[C@H]1C(=O)NC(=O)N1C/C=C/CCS(=O)(=O)NC1(c2ccc(F)c(OCC(C)(C)O)c2)CC1 [compound 122]: 40
- [2H]C([2H])(Oc1cc([C@@H](C)NS(=O)(=O)CCCCCN2CC(=O)NC2=O)ccc1F)C1CC1 [Example 97]: 182
- C[C@@H](NS(=O)(=O)CCCCCN1CC(=O)NC1=O)c1ccc(F)c(NCC2CC2)c1 [Example 96]: 19
- O=C1CN(CCCCCS(=O)(=O)NC2CCc3c2ccc(F)c3OCC2CC2)C(=O)N1 (stereo not drawn) [Example 105]: 36
- CC(C)COc1cc([C@@H](C)NS(=O)(=O)CCCOCN2CC(=O)NC2=O)ccc1F [Example 116]: 173
- C[C@@H](NS(=O)(=O)CC/C=C/CN1C(=O)NC(=O)C1(C)C)c1ccc(F)c(OCC2CC2)c1 [Example 112]: 50

---

IC50 overview
biological target: recombinant human deoxyuridine nucleotidohydrolase (dUTPase) (Homo sapiens (Human), UniProt P33316); test: fluorescence-based dUTPase inhibition assay; format: biochemical
experimental.readout: IC50 (µM)

* CC(Oc1cc([C@@H](C)NS(=O)(=O)CCCCCN2CC(=O)NC2=O)ccc1F)C1CC1 (stereo partly drawn) | 2
* C[C@@H](NS(=O)(=O)CCCCCN1CC(=O)NC1=O)c1cccc(OC2CCCC2)c1 | 0.8
* C[C@@H](NS(=O)(=O)CCCOCN1CC(=O)NC1=O)c1cccc(OC2CCCC2)c1 | 2.5
* C[C@@H](NS(=O)(=O)CCCCCN1CC(=O)NC1=O)c1ccc(F)c(NCC2CC2)c1 | 4
* C[C@@H](NS(=O)(=O)CCn1ccc(N2CC(=O)NC2=O)n1)c1ccc(F)c(OCC2CC2)c1 | 150
* C[C@@H](NS(=O)(=O)CCCCCN1CC(=O)NC1=O)c1ccc(F)c(OC[C@@H]2CCCN2C)c1 | 150
* C[C@@H](NS(=O)(=O)CCCCCN1CC(=O)NC1=O)c1ccc(F)c(OC2CCC2)c1 | 2
* C[C@@H](NS(=O)(=O)CCCCCN1CC(=O)NC1=O)c1ccc(F)c(OC2CCOCC2)c1 | 3
* C[C@@H](NS(=O)(=O)CCCCCN1CC(=O)NC1=O)c1ccc(F)c(OS(=O)(=O)C(F)(F)F)c1 | 150
* C[C@@H](NS(=O)(=O)CCCCCN1CC(=O)NC1=O)c1ccc(F)c(OCC(=O)O)c1 | 20
* C[C@H](c1ccc(F)c(OCC2CC2)c1)N(C)S(=O)(=O)CCCCCN1CC(=O)NC1=O | 6.25
* C[C@@H](NS(=O)(=O)CCCCCN1CC(=O)N(C(=O)OC(C)(C)C)C1=O)c1ccc(F)c(OCC2CC2)c1 | 3.75
* C[C@@H](NS(=O)(=O)CCCCCN1CC(=O)NC1=O)c1ccc(F)c(OCC2CCC2)c1 | 0.8
